Origin of values: the supplement of paper PMC11451515

Item-by-item account of cell viability
system: NOMO1; experiment: cell viability relative to DMSO control; higher = less cytotoxic; conditions: RPMI 5 mM glucose + 10% FBS; 48 h; 46.1 µM
Report the value in % with no unit label.

Solved entries:
| COMPOUND | TEST RESULT |
| --- | --- |
| CO[C@H]1CCC(O[C@H]2C[C@H]([C@]3(C)CC[C@]4(C[C@H](O)[C@@H](C)[C@@H]([C@@H](C)/C=C(\C)C(=O)[C@H](C)C[C@H](C)C(=O)[O-])O4)O3)O[C@]3(O[C@@H]([C@H]4O[C@@](O)(CO)[C@H](C)C[C@@H]4C)C[C@@H]3C)[C@@H]2C)O[C@@H]1C (some centres not stated) | 67.7 |
| Cc1nc(-c2ccc(OCC(C)C)c(C#N)c2)sc1C(=O)O | 118 |
| CC[C@H]1OC(=O)[C@H](C)[C@@H](O[C@H]2C[C@@](C)(OC)[C@@H](O)[C@H](C)O2)[C@H](C)[C@@H](O[C@@H]2O[C@H](C)C[C@H](N(C)C)[C@H]2O)[C@](C)(OC)C[C@@H](C)C(=O)[C@H](C)[C@@H](O)[C@]1(C)O | 81.2 |

Recorded cell viability for "CCc1ccc(OCc2ccccc2C(=O)Nc2ccc3nc(C)cc(N)c3c2)cc1" , please?
4.22

Recorded cell viability for "O=C1NC(=O)/C(=C/c2ccc3nccnc3c2)S1" , please?
103

Recorded cell viability for "c1cc(-c2cnn3cc(-c4ccc(OCCN5CCCCC5)cc4)cnc23)ccn1" , please?
80.2

Recorded cell viability for "Clc2cccc(Cl)c2\N=C1/NCCN1" , please?
111

* * *

test system: SEM cells; test: cell viability relative to DMSO control; higher = less cytotoxic; conditions: HPLM + 10% dialyzed FBS; 48 h; 5.12 µM
Item-by-item account of cell viability
Hey, just the number and the unit after it is fine.

| SMILES DATA | cell viability |
| --- | --- |
| CN(C)C/C=C/C(=O)Nc1ccc(C(=O)Nc2cccc(Nc3ncc(Cl)c(-c4c[nH]c5ccccc45)n3)c2)cc1 | 3.85% |

Recorded cell viability for "Cc1ccc(Nc2cc(-c3cccc(N4C(=O)c5ccccc5C4=O)c3)ncn2)cc1N[S+](C)(=O)[O-]" , please?
123%

Recorded cell viability for "NC(=O)c1cnccn1" , please?
119%

Recorded cell viability for "COc1cc(C(=O)NC2CCN(C)CC2)ccc1Nc1ncc2c(n1)N(C1CCCC1)CCC(=O)N2C(C)C" , please?
94.8%

Recorded cell viability for "Cc1ccc2nc(NCCN)c3ncc(C)n3c2c1" , please?
102%

Recorded cell viability for "O=C(O)c1ccc(O)c2ncc(N3CCOCC3)cc12" , please?
73.5%

Recorded cell viability for "CNC[C@H](O)[C@@H](O)[C@H](O)[C@H](O)CO" , please?
121%

Recorded cell viability for "CC[C@H]1OC(=O)[C@H](C)[C@@H](O[C@H]2C[C@@](C)(OC)[C@@H](O)[C@H](C)O2)[C@H](C)[C@@H](O[C@@H]2O[C@H](C)C[C@H](N(C)C)[C@H]2O)[C@](C)(OC)C[C@@H](C)C(=O)[C@H](C)[C@@H](O)[C@]1(C)O" , please?
84.6%

* * *

Item-by-item account of cell viability
tested on: SEM cells; experiment: cell viability relative to DMSO control; higher = less cytotoxic; details: HPLM + 10% dialyzed FBS; 48 h; 0.000781 µM
Report the value in % with no unit label.

Solved entries:
| COMPOUND | TGT | UNIT ABBREVIATION | cell viability |
| --- | --- | --- | --- |
| O=C(O)c1ccc(O)c2ncc(N3CCOCC3)cc12 | SEM cells | % | 101 |
| CN1CCc2c(c3ccccc3n2Cc2ccc(C(=O)NO)cc2)C1 | SEM cells | % | 81.4 |

Recorded cell viability for "CN(C)C/C=C/C(=O)Nc1ccc(C(=O)Nc2cccc(Nc3ncc(Cl)c(-c4c[nH]c5ccccc45)n3)c2)cc1" , please?
75.1

Recorded cell viability for "CC(C)c1onc(-c2c(Cl)cccc2Cl)c1COc1ccc(/C=C/c2cccc(C(=O)O)c2)c(Cl)c1" , please?
122

Recorded cell viability for "C/C1=C2/[N]3[Co+]456([OH])<-[N]7=C1[C@@H](CCC(N)=O)C(C)(C)/C7=C/C1=[N]->4C(=C(/C)C4=[N]->5[C@@](C)([C@H]3[C@H](CC(N)=O)[C@@]2(C)CCC(=O)NC[C@@H](C)OP(=O)([O-])O[C@H]2[C@@H](O)[C@@H](n3c[n]->6c5cc(C)c(C)cc53)O[C@@H]2CO)[C@@](C)(CC(N)=O)[C@@H]4CCC(N)=O)/[C@@](C)(CC(N)=O)[C@@H]1CCC(N)=O" , please?
93.9

Recorded cell viability for "O=C(c1cncc(Br)c1)N1CCC(N2CCCC2)CC1" , please?
100

Recorded cell viability for CCC(CCCC)COC(=O)C(\C#N)=C(\c1ccccc1)c2ccccc2 (stereo not drawn) , please?
91.6

Recorded cell viability for "CCCCCCNC(=O)N1\C=C(F)/C(=O)NC1=O" , please?
126

Recorded cell viability for "C[C@H](NC(=O)Cc1cc(F)cc(F)c1)C(=O)N[C@H](C(=O)OC(C)(C)C)c1ccccc1" , please?
100
